Target: T1, SETX-HD-WT (Homo sapiens, UniProt Q7Z333 1674-2677)
T1 sequence: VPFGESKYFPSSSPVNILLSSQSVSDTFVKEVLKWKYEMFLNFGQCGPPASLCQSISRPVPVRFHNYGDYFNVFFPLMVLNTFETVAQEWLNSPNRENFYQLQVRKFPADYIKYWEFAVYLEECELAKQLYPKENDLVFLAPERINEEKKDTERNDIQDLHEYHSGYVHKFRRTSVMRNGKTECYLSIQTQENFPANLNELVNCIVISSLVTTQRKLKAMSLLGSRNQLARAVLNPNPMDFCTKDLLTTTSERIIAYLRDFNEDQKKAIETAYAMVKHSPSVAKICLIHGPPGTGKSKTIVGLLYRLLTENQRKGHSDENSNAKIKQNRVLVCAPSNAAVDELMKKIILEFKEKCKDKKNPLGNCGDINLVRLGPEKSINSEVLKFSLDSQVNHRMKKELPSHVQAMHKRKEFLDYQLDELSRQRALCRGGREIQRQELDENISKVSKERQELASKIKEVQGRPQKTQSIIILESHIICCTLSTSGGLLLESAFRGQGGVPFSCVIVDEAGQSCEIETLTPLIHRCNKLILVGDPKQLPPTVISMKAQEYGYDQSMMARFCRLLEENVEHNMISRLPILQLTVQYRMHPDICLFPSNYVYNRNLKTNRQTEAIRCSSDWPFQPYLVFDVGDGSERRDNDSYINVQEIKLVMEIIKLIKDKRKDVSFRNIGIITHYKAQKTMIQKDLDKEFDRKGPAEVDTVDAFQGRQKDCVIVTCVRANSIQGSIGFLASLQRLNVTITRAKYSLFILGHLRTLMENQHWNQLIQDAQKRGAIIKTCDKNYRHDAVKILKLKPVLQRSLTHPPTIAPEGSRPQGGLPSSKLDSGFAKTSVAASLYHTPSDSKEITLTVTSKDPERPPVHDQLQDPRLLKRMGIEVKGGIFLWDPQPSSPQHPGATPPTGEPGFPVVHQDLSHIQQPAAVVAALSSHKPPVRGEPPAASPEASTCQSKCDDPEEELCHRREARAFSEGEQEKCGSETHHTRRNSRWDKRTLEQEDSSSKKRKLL
Assay: BLI

>  <BINDER>
TTGTCTTCTCATAAATTTAATCCCCGTACGCTTATACTCCT (ssDNA) [ssDNA pRMS739 (41 nt)]

>  <Kd / nM>
2.8

$$$$
